Where do the numbers come from? From paper PMC12040169.

- METHOD: in vitro
- CONDITION NOTES: human, hela cells, % viability
Each item that follows carries a reported viability at 28.5 h, 10 µM.
Numeric answer plus unit only.

Please review the following examples before continuing.
CCCCN1C(=O)N(c2nnc(C(C)(C)C)s2)C(=O)C1c1ccc(Cl)c(Cl)c1 (stereo not shown) = 114%
CC(C)(C)OC(=O)n1cnc(CC#N)c1 = 83.1%
OCC12COC3c4ccccc4C(OC1)N32 (stereo not shown) = 89.5%
O=S(=O)(c1ccc(-c2cncc(-c3ccc(O)cc3)n2)cc1F)N1CCOCC1 = 94.3%
CCc1ccc(NC(=O)CN2CCN(c3ccccc3F)CC2)cc1 = 112%
CN(C)S(=O)(=O)N1CC2(CCN(C(=O)[C@@H]3CN(C(=O)C(C)(C)NC(=O)OC(C)(C)C)C[C@H]3c3cc4ccccc4o3)CC2)c2ccccc21 = 89%
CS(=O)(=O)c1ccc(CN2C[C@@H]3OCC(=O)N(c4ccccc4)[C@@H]3C2)cc1 = 93.2%
O=C(CSc1nnc(-c2cccnc2)s1)Nc1ccc([N+](=O)[O-])cc1 = 112%

Moving on to the next compound.
I have this compound here, Cc1noc(C)c1NC(=O)N(Cc1ccccc1C(F)(F)F)C1CCC(N)CC1 (stereo not shown) [CBK045963C] , and I need its recorded viability at 28.5 h, 10 µM. 103%

----------
Each item that follows carries a reported viability at 28.5 h, 10 µM.
- METHOD: in vitro
- CONDITION NOTES: human, hela cells, % viability
Express it in %; write the number only.

Please review the following examples before continuing.
CC(Cc1c[nH]c2ccccc12)NC(=O)CSS(=O)(=O)O (stereo not drawn) [CBK260942N] = 93.3
COc1ccccc1NC(=O)c1ccc(OC(C)C(=O)O)cc1 (stereo not drawn) = 106
NC(=O)C1(Cc2ccccc2-c2ccccc2)CCN(C(=O)CCc2ccccc2)CC1 = 107
Cc1nc2cc(OCc3nc(C(=O)NCC(O)CO)co3)ccc2s1 (stereo not drawn) = 102
O=C(NCCC1SC(NC2CC3C=CC2C3)=NC1=O)c1ccccc1Cl (stereo not drawn) = 113
CN1CCC(N(C)C(=O)c2cc3oc(-c4ccccc4)nc3c(=O)n2C)C1 (stereo not drawn) [CBK200424T] = 93.9
Cc1ccc2c(c1)oc(=O)n2CCNC(=O)CC1c2ccccc2Oc2ccccc21 = 94.8
Cc1cnc(CNS(=O)(=O)c2cnn(-c3ccccc3)c2C)cn1 = 96.5

Moving on to the next compound.
I have this compound here, Cc1ccc(C)c(C(=O)C2=C(O)C(=O)N(CCN(C)C)C2c2cccc(Cl)c2)c1 (stereo not drawn) , and I need its recorded viability at 28.5 h, 10 µM. 91.4

----------
- METHOD: in vitro
- CONDITION NOTES: human, hela cells, % viability
Each item that follows carries a reported viability at 28.5 h, 10 µM.
Express it in %; write the number only.

CC(C)c1ccc(N2C(=O)N[C@@H]3CCN(C(=O)COc4ccccc4)[C@@H]3C2=O)cc1 = 98.2
COc1ccc2[nH]cc(CC(=O)N3CCCC4(CCN(C(=O)c5cc(F)c(F)cc5F)C4)C3)c2c1 (stereo not drawn) = 88.6
O=C(NC(c1ccc(Cl)cc1)c1ccsc1)C1CCN(CCc2ccc(F)cc2)CC1 (stereo not drawn) = 88.4
c1nc(NCCN2CCOCC2)c2c3c(sc2n1)CCCCC3 = 103
COCCNC(=O)c1sc2ncn(CC(=O)Nc3ccccc3OC)c(=O)c2c1C = 88.7

I have this compound here, CN(C)CCCNC(=O)C1CCN(c2cncc(-c3ccc(O)cc3)n2)CC1 [CBK126929T] , and I need its recorded viability at 28.5 h, 10 µM. 94.1

I have this compound here, CCN(CC)CCN(C(=O)N1CCCC1)c1c(C)cccc1C [CBK023237C] , and I need its recorded viability at 28.5 h, 10 µM. 98.7

I have this compound here, CC(=O)N/N=C(\C)c1ccc(-n2cnnn2)cc1 , and I need its recorded viability at 28.5 h, 10 µM. 95.9

I have this compound here, CCCc1cc(C(=O)OC)c(NC(=O)C2CC=CCC2C(=O)O)s1 (stereo not drawn) , and I need its recorded viability at 28.5 h, 10 µM. 117
